Reference for the values: patent US20250346606A1

Tested on: MDA-MB-231 cells
Assay: Inhibitory effect of compounds on MDA-MB-231 cell proliferation
Format: cell-based, Human
Settings: Homo sapiens, MDA-MB-231, 72 h, read-out: IC50, inhibitory activity on MDA-MB-231 cell proliferation
Method: (1) Cell plating: First, tumor cells MDA-MB-231 were cultured in corresponding medium, then digested with trypsin, centrifuged, resuspended, and counted, and the cells were adjusted to an appropriate concentration for plating. […]
Note to self: IC50 under 100 nM means yes (1), ties and anything higher get no (0).

[
  {
    "molecule": "CC[C@@]1(O)C(=O)OCc2c1cc1n(c2=O)Cc2c-1nc1cc(Cl)c(C)c3c1c2[C@@H](NC(=O)[C@@H](O)C1CC1)CC3 [Example 5 (2-12-A)]",
    "class": "no (0)"
  },
  {
    "molecule": "CC[C@@]1(O)C(=O)OCc2c1cc1n(c2=O)Cc2c-1nc1cc(F)c(C)c3c1c2[C@H](CN)CC3 (single isomer, unassigned) [Example 13 (5-7-B)]",
    "class": "no (0)"
  },
  {
    "molecule": "CC[C@@]1(O)C(=O)OCc2c1cc1n(c2=O)Cc2c-1nc1cc3c(cc1c2CCNCCOC)OCO3 [Example 22 (4-15)]",
    "class": "no (0)"
  },
  {
    "molecule": "CC[C@@]1(O)C(=O)OCc2c1cc1n(c2=O)Cc2c-1nc1cc(F)c(C)c3c1c2[C@@H](NC(=O)[C@@H](O)CN(C)C)CC3 (single isomer, unassigned) [Example 20 (1-10-B)]",
    "class": "yes (1)"
  },
  {
    "molecule": "CC[C@@]1(O)C(=O)OCc2c1cc1n(c2=O)Cc2c-1nc1cc(Cl)c(C)c3c1c2[C@@H](NC(=O)CO)CC3 [Example 3 (2-1-A)]",
    "class": "no (0)"
  }
]

// switching to the query molecule
Quick check: IC50 of CC#C[C@@H](O)C(=O)N[C@H]1CCc2c(C)c(F)cc3nc4c(c1c23)Cn1c-4cc2c(c1=O)COC(=O)[C@]2(O)CC [Example 1 (1-1-A)] under 100 nM? no (0)
